biological target: CYP2C9 Lys206Ala mutant (Homo sapiens, UniProt P11712, K206A); assay: in vitro; details: pH 7.4, Km, flurbiprofen 4′-hydroxylation, + dapsone 100 μM
readout.kind: Km at 30 min (µM)
Give the value, in units of µM, as a plain number.

## Input Please indicate recorded Km at 30 min of C[C@H](C(=O)O)c1ccc(-c2ccccc2)c(F)c1 measured with CYP2C9 Lys206Ala mutant (Homo sapiens, UniProt P11712, K206A).
## Output 6.6

----------
molecular target: WT CYP2C9 (Homo sapiens); assay: Diclofenac 4′-hydroxylation kinetics, recombinant WT CYP2C9; settings: human, pH 7.4, Km, diclofenac 4′-hydroxylation, − dapsone
readout.kind: Km at 7 min
Quote the value and follow it with the unit of measurement.

## Input Answer with reported Km at 7 min of O=C(O)Cc1ccccc1Nc1c(Cl)cccc1Cl [Diclofenac, diclofenac]
## Output 2.18 µM

meta.source: paper PMC10696402
